The measured values listed here are drawn from patent US20240043439A1.

pIC50: −log10 of the molar value.
human C5a receptor (C5aR) (Homo sapiens (Human), UniProt P21730) pIC50 data
Sequence (P21730 whole entry): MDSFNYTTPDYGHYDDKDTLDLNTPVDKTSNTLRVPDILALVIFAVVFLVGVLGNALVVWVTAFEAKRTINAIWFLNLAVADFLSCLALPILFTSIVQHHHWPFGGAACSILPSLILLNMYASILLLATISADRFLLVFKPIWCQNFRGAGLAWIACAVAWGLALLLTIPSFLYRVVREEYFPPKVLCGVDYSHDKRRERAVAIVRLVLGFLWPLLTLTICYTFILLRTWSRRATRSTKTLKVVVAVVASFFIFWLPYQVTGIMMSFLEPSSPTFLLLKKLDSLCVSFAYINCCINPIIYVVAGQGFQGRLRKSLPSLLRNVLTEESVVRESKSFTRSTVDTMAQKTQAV

Here's what some known entries look like.
molecule	recorded.endpoint	result
Cc1ccc(NC(=O)C2C[C@@H]3CCC[C@@H]3N(C(=O)c3c(C)cccc3F)C2c2ccc(NC3CCCC3)cc2)cc1P(C)(C)=O (relative stereo)	pIC50	5.30 to 5.70
Cc1cccc(F)c1C(=O)N1C(c2ccc(NC3CCCC3)cc2)C(C(=O)Nc2ccc3c(c2)CCNC3)C[C@@H]2CCC[C@@H]21 (relative stereo)	pIC50	5.30 to 5.70
Cc1cccc(F)c1C(=O)N1C2CCC[C@@H]2C[C@H](C(=O)Nc2ccc3cccnc3c2)[C@@H]1c1ccc(NC2CCOCC2)cc1 (relative stereo)	pIC50	6.30 to 7.30

### Prompt Assign pIC50 to the following record: Cc1cccc(F)c1C(=O)N1C(c2ccc(NC3CCCC3)cc2)C(C(=O)Nc2ccc3c(c2)CCN(C)C3)C[C@@H]2CCC[C@@H]21 (relative stereo)
### Response 5.30 to 5.70

### Prompt Assign pIC50 to the following record: Cc1ccc(NC(=O)C2C[C@H]3CCC[C@H]3N(C(=O)c3cncnc3)C2c2ccc(NC3CCCC3)cc2)cc1C(F)(F)F (relative stereo)
### Response 6.30 to 7.30

### Prompt Assign pIC50 to the following record: "Cc1ccc(NC(=O)[C@H]2C[C@H]3COC[C@H]3N(C(=O)c3c(C)cccc3F)[C@H]2c2ccc(NC3CCCC3)cc2)cc1C(F)(F)F"
### Response > 7.30

====

target.under.test: C5aR (Homo sapiens (Human))
Sequence (P21730 whole entry): as above
test.method.notes: Inhibition of C5a-C5aR binding determined by cell migration assay (U937/C5aR cells)
Format: cell-based
condition.set: U937/C5aR cell migration towards human C5a, 180 min
Overview of reported IC50 across a group of compounds:

Here's what some known entries look like.
compound	target.under.test	IC50
Cc1ccc(NC(=O)C2C[C@@H]3COC[C@@H]3N(C(=O)c3c(C)cccc3F)C2c2ccc(CN3CCOCC3(C)C)cc2)cc1C(F)(F)F (relative stereo) [Compound 141]	C5aR (Homo sapiens (Human))	500 to 2000 nM
Cc1ccc(NC(=O)C2C[C@@H]3CCC[C@@H]3N(C(=O)c3c(C)cccc3F)C2c2ccc(NC3CCOCC3)cc2)cc1C(F)(F)F (relative stereo) [Compound 88]	C5aR (Homo sapiens (Human))	< 50 nM
Cc1cccc(F)c1C(=O)N1C(c2ccc(NC3CCCC3)cc2)C(C(=O)Nc2cnc3cnn(C)c3c2)C[C@@H]2CCC[C@@H]21 (relative stereo) [Compound 78]	C5aR (Homo sapiens (Human))	50 to 500 nM
Cc1ccc(NC(=O)[C@H]2CCC3CCc4ccccc4C(=O)N3[C@H]2c2ccc(NC3CCCC3)cc2)cc1C(F)(F)F (stereo partly drawn) [Compound 44]	C5aR (Homo sapiens (Human))	< 50 nM
Cc1ccc(NC(=O)[C@@H]2CC(O)CN(C(=O)c3c(C)cccc3F)[C@@H]2c2ccc(NC3CCCC3)cc2)cc1C(F)(F)F (relative stereo) [Compound 204]	C5aR (Homo sapiens (Human))	50 to 500 nM

// below: IC50 requested for another compound
### Prompt Assign IC50 to the following record: Cc1cccc(F)c1C(=O)N1[C@@H]2CCC[C@@H]2C[C@H](C(=O)Nc2ccc(N(C)C)cc2)[C@@H]1c1ccc(NC2CCOCC2)cc1 [Compound 94]
### Response 50 to 500 nM

====

target.under.test: UniProt:P21730
test.method.notes: Calcium mobilization (U937/C5aR or HEK293/C5aR cells, FLIPR)
Format: cell-based
condition.set: agonist human C5a at EC80, FLIPR
pIC50: −log10 of the molar value.
Overview of reported pIC50 across a group of compounds:

Here's what some known entries look like.
compound	pIC50
Cc1ccc(C)c(S(=O)(=O)N2CCC[C@H](C(=O)Nc3ccc(C)c(C(F)(F)F)c3)[C@@H]2c2ccc(NC3CCCC3)cc2)c1 [Compound 10]	< 5.00
COC(=O)c1ccccc1S(=O)(=O)N1CCC[C@H](C(=O)Nc2ccc(C)c(C(F)(F)F)c2)[C@@H]1c1ccc(NC2CCCC2)cc1 [Compound 31]	5.00 to 5.70
Cc1ccc(NC(=O)C2C[C@H]3CCC[C@H]3N(C(=O)c3cn(C)cn3)C2c2ccc(NC3CCCC3)cc2)cc1C(F)(F)F (relative stereo) [Compound 113]	< 5.00

### Prompt Assign pIC50 to the following record: Cc1ccc(NC(=O)[C@H]2CCCN(Cc3c(C)cccc3F)[C@H]2c2ccc(NC3CCCC3)cc2)cc1C(F)(F)F [Compound 159]
### Response 5.00 to 5.70

### Prompt Assign pIC50 to the following record: Cc1cccc(F)c1C(=O)N1C(c2ccc(NC3CCN(C)CC3)cc2)C(C(=O)Nc2ccc3c(cnn3C)c2)C[C@@H]2CCC[C@@H]21 (relative stereo) [Compound 117]
### Response 5.00 to 5.70

### Prompt Assign pIC50 to the following record: Cc1ccc(NC(=O)[C@H]2CCC3CCc4ccccc4C(=O)N3[C@H]2c2ccc(NC3CCCC3)cc2)cc1C(F)(F)F (stereo partly drawn) [Compound 44]
### Response 5.70 to 6.30

====

target.under.test: UniProtKB P21730
test.method.notes: Calcium mobilization (U937/C5aR or HEK293/C5aR cells, FLIPR)
Assay type: cell-based
condition.set: agonist human C5a at EC80, FLIPR
Overview of reported IC50 across a group of molecules:

Here's what some known entries look like.
molecule	recorded.endpoint	result
Cc1ccc(NC(=O)[C@H]2CCCN[C@H]2c2ccc(N(c3ncnc4cnccc34)C3CCCC3)cc2)cc1C(F)(F)F	IC50	2000 to 10000 nM
Cc1ccc(NC(=O)C2CC3CCCC3N(C(=O)c3c(C)cccc3F)C2c2ccc(NC3CCCC3)cc2)cc1C(F)(F)F (stereo in doubt)	IC50	2000 to 10000 nM
Cc1ccc(NC(=O)[C@H]2CCCN(S(=O)(=O)c3ccccc3Br)[C@H]2c2ccc(NC3CCCC3)cc2)cc1C(F)(F)F	IC50	2000 to 10000 nM

### Prompt Assign IC50 to the following record: Cc1cccc(F)c1C(=O)N1[C@@H]2CCC[C@@H]2C[C@H](C(=O)Nc2ccc(F)c(C(F)(F)F)c2)[C@@H]1c1ccc(NC2CCCC2)cc1 (relative stereo)
### Response 2000 to 10000 nM

### Prompt Assign IC50 to the following record: Cc1ccc(NC(=O)C2C[C@@H]3CCC[C@@H]3N(C(=O)c3cocn3)C2c2ccc(NC3CCCC3)cc2)cc1C(F)(F)F (relative stereo)
### Response > 10000 nM

### Prompt Assign IC50 to the following record: "Cc1cccc(F)c1C(=O)N1[C@@H]2CCC[C@@H]2C[C@H](C(=O)Nc2ccc3c(ccn3C)c2)[C@@H]1c1ccc(NC2CCOCC2)cc1"
### Response 500 to 2000 nM

### Prompt Assign IC50 to the following record: Cc1cccc(F)c1C(=O)N1[C@@H]2CCC[C@@H]2C[C@H](C(=O)Nc2ccc3cnn(C4COC4)c3c2)[C@@H]1c1ccc(NC2CCCC2)cc1 (racemic)
### Response 500 to 2000 nM

### Prompt Assign IC50 to the following record: Cc1ccc(NC(=O)C2C[C@H]3CCC[C@H]3N(C(=O)c3cncnc3)C2c2ccc(NC3CCCC3)cc2)cc1C(F)(F)F (relative stereo)
### Response > 10000 nM

### Prompt Assign IC50 to the following record: "Cc1ccc(NC(=O)[C@H]2CCCN(c3ncnc4cccnc34)[C@H]2c2ccc(NC3CCCC3)cc2)cc1C(F)(F)F"
### Response 2000 to 10000 nM

### Prompt Assign IC50 to the following record: "Cc1cccc(F)c1C(=O)N1[C@@H]2CCC[C@@H]2C[C@H](C(=O)Nc2cnn(C)c2)[C@@H]1c1ccc(NC2CCCC2)cc1"
### Response 2000 to 10000 nM

### Prompt Assign IC50 to the following record: "Cc1cc(C)c(S(=O)(=O)N2CCC[C@H](C(=O)Nc3ccc(C)c(C(F)(F)F)c3)[C@@H]2c2ccc(NC3CCCC3)cc2)c(C)c1"
### Response 2000 to 10000 nM

### Prompt Assign IC50 to the following record: Cc1cccc(F)c1C(=O)N1[C@@H]2CCC[C@@H]2C[C@H](C(=O)Nc2ccc3cnn(C)c3c2)[C@@H]1c1ccc(NC2CCCC2)cc1 (racemic) [Compound 66]
### Response 50 to 500 nM

### Prompt Assign IC50 to the following record: "Cc1ccc(NC(=O)[C@H]2CCCN(S(=O)(=O)c3ccc(F)cc3C)[C@H]2c2ccc(NC3CCCC3)cc2)cc1C(F)(F)F"
### Response 2000 to 10000 nM

### Prompt Assign IC50 to the following record: Cc1ccc(NC(=O)C2C[C@@H]3COC[C@@H]3N(C(=O)c3c(C)cccc3F)C2c2ccc(CN3CCOCC3(C)C)cc2)cc1C(F)(F)F (relative stereo)
### Response 2000 to 10000 nM

### Prompt Assign IC50 to the following record: Cc1ccc(NC(=O)[C@H]2C[C@H]3COCC3N(C(=O)c3c(C)cccc3F)[C@H]2c2ccc(NC3CCOCC3)cc2)cc1C(F)(F)F (mixture of isomers)
### Response 500 to 2000 nM

### Prompt Assign IC50 to the following record: "Cc1ccc(NC(=O)[C@H]2CCCN[C@H]2c2ccc(N(c3nccc4ccsc34)C3CCCC3)cc2)cc1C(F)(F)F"
### Response 2000 to 10000 nM

### Prompt Assign IC50 to the following record: Cc1ccc(NC(=O)C2C[C@H]3CCC[C@H]3N(C(=O)C3CCOCC3)[C@H]2c2ccc(NC3CCCC3)cc2)cc1C(F)(F)F (relative stereo)
### Response 2000 to 10000 nM

### Prompt Assign IC50 to the following record: "Cc1cccc(F)c1C(=O)N1[C@@H]2COC[C@@H]2C[C@H](C(=O)Nc2ccc3c(ccn3C)c2)[C@@H]1c1ccc(NC2CCCC2)cc1"
### Response 2000 to 10000 nM

### Prompt Assign IC50 to the following record: Cc1ccc(NC(=O)C2C[C@@H]3CCC[C@@H]3N(C(=O)c3c(C)cccc3F)C2c2ccc(NC3CCCC3)cc2)cc1P(C)(C)=O (relative stereo)
### Response 2000 to 10000 nM

### Prompt Assign IC50 to the following record: "Cc1ccc(NC(=O)[C@H]2CCCN(S(=O)(=O)c3c(C)noc3C)[C@H]2c2ccc(NC3CCCC3)cc2)cc1C(F)(F)F"
### Response 2000 to 10000 nM

### Prompt Assign IC50 to the following record: "Cc1ccc(NC(=O)[C@H]2CCCN(c3nccc4nccnc34)[C@H]2c2ccc(N(C(=O)OCc3ccccc3)C3CCCC3)cc2)cc1C(F)(F)F"
### Response 2000 to 10000 nM

### Prompt Assign IC50 to the following record: "Cc1ccc(NC(=O)[C@H]2CCCN(S(=O)(=O)c3cccc(Cl)c3C)[C@H]2c2ccc(NC3CCCC3)cc2)cc1C(F)(F)F"
### Response > 10000 nM

### Prompt Assign IC50 to the following record: "Cc1ccc(NC(=O)[C@H]2CCCN(S(=O)(=O)c3ccccc3S(C)(=O)=O)[C@H]2c2ccc(NC3CCCC3)cc2)cc1C(F)(F)F"
### Response 2000 to 10000 nM
